- Method notes: Microsomal metabolic stability
- Type: in vitro ADME, human
- Condition set: human, pH 7.4
Numbered stars: 1 amine (or outer) side, 2 acyl side, 3 side chain; on linkers, the order of the positions; unused ones are H or OH. Bridge positions count the residues as written; N and C are the ends. Square brackets hold non-standard residues; d marks the D form. Peptide text beside a SMILES is read from it. * marks the point of attachment. Piperazine(2S-CO,4-Me) = CN1CCN[C@H](C(=O)O)C1; NH(1,3-benzodioxol-5-yl) = c1cc2c(cc1N*)OCO2; Phe(3-Me) = Cc1cccc(C[C@H](N)C(=O)O)c1; NH(4-Cl-2-F-phenyl) = Fc1cc(Cl)ccc1N*; Pro(4R-Me) = C[C@H]1CN[C@H](C(=O)O)C1; CO = O=C([*:1])[*:2]
Observation type: Human

Molecule: Cc1cccc(C[C@H](NC(=O)Nc2ccc(Cl)cc2F)C(=O)N[C@H]2COC(=O)[C@@H]3C[C@@H](C)CN3C(=O)[C@H](C)NC(=O)[C@@H]3CN(C)CCN3C(=O)[C@@H]3CCCN3C2=O)c1 [Compound 13] ({NH(4-Cl-2-F-phenyl)-CO}-[Phe(3-Me)]SP[Piperazine(2S-CO,4-Me)]A[Pro(4R-Me)]; ester 2-C)
Human – 0.38 ± 0.04 h

# context switch: different molecule, same Human
Looking up Cc1cccc(C[C@H](NC(=O)Nc2ccc3c(c2)OCO3)C(=O)N[C@H]2COC(=O)[C@@H]3C[C@@H](C)CN3C(=O)[C@H](C)NC(=O)[C@@H]3CN(C)CCN3C(=O)[C@@H]3CCCN3C2=O)c1 [Compound 17] ({NH(1,3-benzodioxol-5-yl)-CO}-[Phe(3-Me)]SP[Piperazine(2S-CO,4-Me)]A[Pro(4R-Me)]; ester 2-C) , I found its Human recorded as 1.58 ± 0.25 h

###

- Study target: S. aureus ClpP (Sa-ClpP) (Staphylococcus aureus)
- Sequence (Q2G036 whole entry): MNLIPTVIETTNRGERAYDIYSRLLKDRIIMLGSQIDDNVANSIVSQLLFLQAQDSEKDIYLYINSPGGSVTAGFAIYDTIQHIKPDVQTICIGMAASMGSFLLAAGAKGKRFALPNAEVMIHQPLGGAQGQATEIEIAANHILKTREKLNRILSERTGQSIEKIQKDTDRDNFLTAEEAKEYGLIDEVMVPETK
- Method notes: Casein-BODIPY digestion assay (ClpP activation)
pEC50: −log10 of the molar value. Numbered stars: 1 amine (or outer) side, 2 acyl side, 3 side chain; on linkers, the order of the positions; unused ones are H or OH. Bridge positions count the residues as written; N and C are the ends. Square brackets hold non-standard residues; d marks the D form. Peptide text beside a SMILES is read from it. * marks the point of attachment. X5 = O=C([C@@H]1C[C@@H](OP(=O)(O)O)CN1[*:1])[*:2]; Piperazine(2S-CO,4-Me) = CN1CCN[C@H](C(=O)O)C1; Phe(3,5-Me2) = Cc1cc(C)cc(C[C@H](N)C(=O)O)c1; Phe(3-Me) = Cc1cccc(C[C@H](N)C(=O)O)c1; NH(4-Cl-2-F-phenyl) = Fc1cc(Cl)ccc1N*; Pro(4R-Me) = C[C@H]1CN[C@H](C(=O)O)C1; NH(3-Cl-phenyl) = Clc1cccc(N*)c1; NH(4-Me-phenyl) = Cc1ccc(N*)cc1; aThr = C[C@H](O)[C@H](N)C(=O)O; Pip = O=C(O)[C@@H]1CCCCN1; CO = O=C([*:1])[*:2]
Assign Met to entries whose pEC50 meets or exceeds 6; assign Not met to the rest.

Solved cases below.
Compound: Cc1cccc(C[C@H](NC(=O)Nc2ccc(Cl)cc2F)C(=O)N[C@@H]2C(=O)N3C[C@H](OP(=O)(O)O)C[C@H]3C(=O)N3CCCC[C@H]3C(=O)N[C@@H](C)C(=O)N3C[C@H](C)C[C@H]3C(=O)O[C@H]2C)c1 [Compound 29] ({NH(4-Cl-2-F-phenyl)-CO}-[Phe(3-Me)][aThr][X5][Pip]A[Pro(4R-Me)]; ester 2-C)
Cat: Met
//
Compound: Cc1cc(C)cc(C[C@H](NC(=O)Nc2ccc(Cl)cc2F)C(=O)N[C@@H]2C(=O)N3CCC[C@H]3C(=O)N3CCCC[C@H]3C(=O)N[C@@H](C)C(=O)N3C[C@H](C)C[C@H]3C(=O)O[C@H]2C)c1 [Compound 4] ({NH(4-Cl-2-F-phenyl)-CO}-[Phe(3,5-Me2)][aThr]P[Pip]A[Pro(4R-Me)]; ester 2-C)
Cat: Met
//
Compound: Cc1ccc(NC(=O)N[C@@H](Cc2cccc(C)c2)C(=O)N[C@H]2COC(=O)[C@@H]3C[C@@H](C)CN3C(=O)[C@H](C)NC(=O)[C@@H]3CN(C)CCN3C(=O)[C@@H]3CCCN3C2=O)cc1 [Compound 15] ({NH(4-Me-phenyl)-CO}-[Phe(3-Me)]SP[Piperazine(2S-CO,4-Me)]A[Pro(4R-Me)]; ester 2-C)
Cat: Not met

Please turn your attention to the following entry.
*Q* Given the entry Cc1cccc(C[C@H](NC(=O)Nc2cccc(Cl)c2)C(=O)N[C@@H]2C(=O)N3CCC[C@H]3C(=O)N3CCCC[C@H]3C(=O)N[C@@H](C)C(=O)N3C[C@H](C)C[C@H]3C(=O)O[C@H]2C)c1 [Compound 64] ({NH(3-Cl-phenyl)-CO}-[Phe(3-Me)][aThr]P[Pip]A[Pro(4R-Me)]; ester 2-C) , answer whether its pEC50 meets or surpasses 6.
*A* Met

###

Form field: Mouse (one value per entry).
- Method notes: Microsomal metabolic stability
- Type: in vitro ADME, mouse
- Condition set: CD-1, mouse, pH 7.4
Numbered stars: 1 amine (or outer) side, 2 acyl side, 3 side chain; on linkers, the order of the positions; unused ones are H or OH. Bridge positions count the residues as written; N and C are the ends. Square brackets hold non-standard residues; d marks the D form. Peptide text beside a SMILES is read from it. * marks the point of attachment. Piperazine(2S-CO,4-Me) = CN1CCN[C@H](C(=O)O)C1; NH(1,3-benzodioxol-5-yl) = c1cc2c(cc1N*)OCO2; Morpholine(3S-CO) = O=C(O)[C@@H]1COCCN1; Phe(3-Me) = Cc1cccc(C[C@H](N)C(=O)O)c1; Pro(4R-Me) = C[C@H]1CN[C@H](C(=O)O)C1; Hyp = O=C(O)[C@@H]1C[C@@H](O)CN1; NH(4-Et-phenyl) = CCc1ccc(N*)cc1; aThr = C[C@H](O)[C@H](N)C(=O)O; CO = O=C([*:1])[*:2]
Number only, in h; omit the unit.

Solved entries:
Compound: CCc1ccc(NC(=O)N[C@@H](Cc2cccc(C)c2)C(=O)N[C@@H]2C(=O)N3C[C@H](O)C[C@H]3C(=O)N3CCOC[C@H]3C(=O)N[C@@H](C)C(=O)N3C[C@H](C)C[C@H]3C(=O)O[C@H]2C)cc1 [Compound 24] ({NH(4-Et-phenyl)-CO}-[Phe(3-Me)][aThr][Hyp][Morpholine(3S-CO)]A[Pro(4R-Me)]; ester 2-C)
Mouse / h: 1.03
//
Compound: CCc1ccc(NC(=O)N[C@@H](Cc2cccc(C)c2)C(=O)N[C@H]2COC(=O)[C@@H]3C[C@@H](C)CN3C(=O)[C@H](C)NC(=O)[C@@H]3CN(C)CCN3C(=O)[C@@H]3CCCN3C2=O)cc1 [Compound 16] ({NH(4-Et-phenyl)-CO}-[Phe(3-Me)]SP[Piperazine(2S-CO,4-Me)]A[Pro(4R-Me)]; ester 2-C)
Mouse / h: 1.80
//
Compound: Cc1cccc(C[C@H](NC(=O)Nc2ccc3c(c2)OCO3)C(=O)N[C@H]2COC(=O)[C@@H]3C[C@@H](C)CN3C(=O)[C@H](C)NC(=O)[C@@H]3CN(C)CCN3C(=O)[C@@H]3CCCN3C2=O)c1 [Compound 17] ({NH(1,3-benzodioxol-5-yl)-CO}-[Phe(3-Me)]SP[Piperazine(2S-CO,4-Me)]A[Pro(4R-Me)]; ester 2-C)
Mouse / h: 4.83

# context switch: different compound, same Mouse
Looking up `Cc1cccc(C[C@H](NC(=O)Nc2ccc(Cl)cc2F)C(=O)N[C@H]2COC(=O)[C@@H]3C[C@@H](C)CN3C(=O)[C@H](C)NC(=O)[C@@H]3CCCCN3C(=O)[C@@H]3C[C@@H](O)CN3C2=O)c1` , I found its Mouse recorded as 0.7

###

Form field: MIC (one value per entry).
- System: S. pneumoniae
- Method notes: Minimal inhibitory concentration, microbroth dilution
- Format: cell-based
- Condition set: Streptococcus pneumoniae; MIC; read-out: Minimal Inhibitory Concentrations (μM) S. pneumoniae
Numbered stars: 1 amine (or outer) side, 2 acyl side, 3 side chain; on linkers, the order of the positions; unused ones are H or OH. Bridge positions count the residues as written; N and C are the ends. Square brackets hold non-standard residues; d marks the D form. Peptide text beside a SMILES is read from it. * marks the point of attachment. ξ: configuration not given here. Piperazine(2S-CO,4-Me) = CN1CCN[C@H](C(=O)O)C1; Phe(3-Me) = Cc1cccc(C[C@H](N)C(=O)O)c1; NH(4-Cl-2-F-phenyl) = Fc1cc(Cl)ccc1N*; Pro(4R-Me) = C[C@H]1CN[C@H](C(=O)O)C1; NH(4-Et-phenyl) = CCc1ccc(N*)cc1; ξNMeThr = CNC(C(=O)O)[C@@H](C)O; aThr = C[C@H](O)[C@H](N)C(=O)O; CO = O=C([*:1])[*:2]; X2 = Fc1cc(N*)ccc1Cl
Number only, in µM; omit the unit.

Solved entries:
Molecule: Cc1cccc(C[C@H](NC(=O)Nc2ccc(Cl)cc2F)C(=O)N[C@H]2COC(=O)[C@@H]3C[C@@H](C)CN3C(=O)[C@H](C)NC(=O)[C@@H]3CCCCN3C(=O)[C@@H]3CCCN3C2=O)c1 [Compound 8]
MIC (µM): 0.078
//
Molecule: Cc1cccc(C[C@H](NC(=O)Nc2ccc(Cl)c(F)c2)C(=O)N[C@H]2COC(=O)[C@@H]3C[C@@H](C)CN3C(=O)[C@H](C)NC(=O)[C@@H]3CN(C)CCN3C(=O)[C@@H]3CCCN3C2=O)c1 [Compound 14] ({X2-CO}-[Phe(3-Me)]SP[Piperazine(2S-CO,4-Me)]A[Pro(4R-Me)]; ester 2-C)
MIC (µM): 0.625
//
Molecule: Cc1cccc(C[C@H](NC(=O)Nc2ccc(Cl)cc2F)C(=O)N[C@@H]2C(=O)N3CCC[C@H]3C(=O)N(C)C([C@@H](C)O)C(=O)N[C@@H](C)C(=O)N3C[C@H](C)C[C@H]3C(=O)O[C@H]2C)c1 (stereo partly drawn) [Compound 5] ({NH(4-Cl-2-F-phenyl)-CO}-[Phe(3-Me)][aThr]P[ξNMeThr]A[Pro(4R-Me)]; ester 2-C)
MIC (µM): 0.039
//
Molecule: Cc1cccc(C[C@H](NC(=O)Nc2ccc(Cl)cc2F)C(=O)N[C@H]2COC(=O)[C@@H]3C[C@@H](C)CN3C(=O)[C@H](C)NC(=O)[C@@H]3CN(C)CCN3C(=O)[C@@H]3CCCN3C2=O)c1 [Compound 13] ({NH(4-Cl-2-F-phenyl)-CO}-[Phe(3-Me)]SP[Piperazine(2S-CO,4-Me)]A[Pro(4R-Me)]; ester 2-C)
MIC (µM): 0.156
//
Molecule: CCc1ccc(NC(=O)N[C@@H](Cc2cccc(C)c2)C(=O)N[C@H]2COC(=O)[C@@H]3C[C@@H](C)CN3C(=O)[C@H](C)NC(=O)[C@@H]3CN(C)CCN3C(=O)[C@@H]3CCCN3C2=O)cc1 [Compound 16] ({NH(4-Et-phenyl)-CO}-[Phe(3-Me)]SP[Piperazine(2S-CO,4-Me)]A[Pro(4R-Me)]; ester 2-C)
MIC (µM): 0.078

Recorded MIC for Cc1cccc(C[C@H](NC(=O)Nc2ccc(Cl)cc2F)C(=O)N[C@H]2COC(=O)[C@@H]3C[C@@H](C)CN3C(=O)[C@H](C)NC(=O)[C@@H]3CCCCN3C(=O)[C@@H]3C[C@@H](O)CN3C2=O)c1 [Compound 10] on S. pneumoniae was 0.078
